Listed here are compounds together with their documented pIC50.
biological target: human α1H T-type channels (Homo sapiens, UniProt O95180); test: T-type calcium channel block, whole cell patch clamp, α1H; conditions: HEK cells stably expressing human α1H; mainly non-inactivated protocol; values above 10,000 nM represented as 10000
pIC50: −log10 of the molar value.

Data request: Return pIC50 measured with human α1H T-type channels (Homo sapiens, UniProt O95180) given this compound: `CC(C)(CCS(=O)(=O)c1cccc(C(F)(F)F)c1)S(=O)(=O)c1cccc(C(F)(F)F)c1`
Data returned: < 5.00

Data request: Return pIC50 measured with human α1H T-type channels (Homo sapiens, UniProt O95180) given this compound: `CC(C)(C)NC(=O)CN[C@H]1CC[C@H](CS(=O)(=O)c2cccc(C(F)(F)F)c2)CC1`
Data returned: < 5.00

Data request: Return pIC50 measured with human α1H T-type channels (Homo sapiens, UniProt O95180) given this compound: `CN(CCC(C)(C)S(=O)(=O)c1cccc(C(F)(F)F)c1)C(=O)c1cc(C(F)(F)F)n[nH]1`
Data returned: < 5.00

* * *

target: Human Cav 2.2 channels (Homo sapiens); experiment: Fluorescent assay for CaV2.2 channels using potassium depolarization (VIPR/FLIPR); format: cell-based; settings: FLIPR data; inactivated state; read-out: CAv2.2 IC50 Inact.
Sequence (Q00975 whole entry): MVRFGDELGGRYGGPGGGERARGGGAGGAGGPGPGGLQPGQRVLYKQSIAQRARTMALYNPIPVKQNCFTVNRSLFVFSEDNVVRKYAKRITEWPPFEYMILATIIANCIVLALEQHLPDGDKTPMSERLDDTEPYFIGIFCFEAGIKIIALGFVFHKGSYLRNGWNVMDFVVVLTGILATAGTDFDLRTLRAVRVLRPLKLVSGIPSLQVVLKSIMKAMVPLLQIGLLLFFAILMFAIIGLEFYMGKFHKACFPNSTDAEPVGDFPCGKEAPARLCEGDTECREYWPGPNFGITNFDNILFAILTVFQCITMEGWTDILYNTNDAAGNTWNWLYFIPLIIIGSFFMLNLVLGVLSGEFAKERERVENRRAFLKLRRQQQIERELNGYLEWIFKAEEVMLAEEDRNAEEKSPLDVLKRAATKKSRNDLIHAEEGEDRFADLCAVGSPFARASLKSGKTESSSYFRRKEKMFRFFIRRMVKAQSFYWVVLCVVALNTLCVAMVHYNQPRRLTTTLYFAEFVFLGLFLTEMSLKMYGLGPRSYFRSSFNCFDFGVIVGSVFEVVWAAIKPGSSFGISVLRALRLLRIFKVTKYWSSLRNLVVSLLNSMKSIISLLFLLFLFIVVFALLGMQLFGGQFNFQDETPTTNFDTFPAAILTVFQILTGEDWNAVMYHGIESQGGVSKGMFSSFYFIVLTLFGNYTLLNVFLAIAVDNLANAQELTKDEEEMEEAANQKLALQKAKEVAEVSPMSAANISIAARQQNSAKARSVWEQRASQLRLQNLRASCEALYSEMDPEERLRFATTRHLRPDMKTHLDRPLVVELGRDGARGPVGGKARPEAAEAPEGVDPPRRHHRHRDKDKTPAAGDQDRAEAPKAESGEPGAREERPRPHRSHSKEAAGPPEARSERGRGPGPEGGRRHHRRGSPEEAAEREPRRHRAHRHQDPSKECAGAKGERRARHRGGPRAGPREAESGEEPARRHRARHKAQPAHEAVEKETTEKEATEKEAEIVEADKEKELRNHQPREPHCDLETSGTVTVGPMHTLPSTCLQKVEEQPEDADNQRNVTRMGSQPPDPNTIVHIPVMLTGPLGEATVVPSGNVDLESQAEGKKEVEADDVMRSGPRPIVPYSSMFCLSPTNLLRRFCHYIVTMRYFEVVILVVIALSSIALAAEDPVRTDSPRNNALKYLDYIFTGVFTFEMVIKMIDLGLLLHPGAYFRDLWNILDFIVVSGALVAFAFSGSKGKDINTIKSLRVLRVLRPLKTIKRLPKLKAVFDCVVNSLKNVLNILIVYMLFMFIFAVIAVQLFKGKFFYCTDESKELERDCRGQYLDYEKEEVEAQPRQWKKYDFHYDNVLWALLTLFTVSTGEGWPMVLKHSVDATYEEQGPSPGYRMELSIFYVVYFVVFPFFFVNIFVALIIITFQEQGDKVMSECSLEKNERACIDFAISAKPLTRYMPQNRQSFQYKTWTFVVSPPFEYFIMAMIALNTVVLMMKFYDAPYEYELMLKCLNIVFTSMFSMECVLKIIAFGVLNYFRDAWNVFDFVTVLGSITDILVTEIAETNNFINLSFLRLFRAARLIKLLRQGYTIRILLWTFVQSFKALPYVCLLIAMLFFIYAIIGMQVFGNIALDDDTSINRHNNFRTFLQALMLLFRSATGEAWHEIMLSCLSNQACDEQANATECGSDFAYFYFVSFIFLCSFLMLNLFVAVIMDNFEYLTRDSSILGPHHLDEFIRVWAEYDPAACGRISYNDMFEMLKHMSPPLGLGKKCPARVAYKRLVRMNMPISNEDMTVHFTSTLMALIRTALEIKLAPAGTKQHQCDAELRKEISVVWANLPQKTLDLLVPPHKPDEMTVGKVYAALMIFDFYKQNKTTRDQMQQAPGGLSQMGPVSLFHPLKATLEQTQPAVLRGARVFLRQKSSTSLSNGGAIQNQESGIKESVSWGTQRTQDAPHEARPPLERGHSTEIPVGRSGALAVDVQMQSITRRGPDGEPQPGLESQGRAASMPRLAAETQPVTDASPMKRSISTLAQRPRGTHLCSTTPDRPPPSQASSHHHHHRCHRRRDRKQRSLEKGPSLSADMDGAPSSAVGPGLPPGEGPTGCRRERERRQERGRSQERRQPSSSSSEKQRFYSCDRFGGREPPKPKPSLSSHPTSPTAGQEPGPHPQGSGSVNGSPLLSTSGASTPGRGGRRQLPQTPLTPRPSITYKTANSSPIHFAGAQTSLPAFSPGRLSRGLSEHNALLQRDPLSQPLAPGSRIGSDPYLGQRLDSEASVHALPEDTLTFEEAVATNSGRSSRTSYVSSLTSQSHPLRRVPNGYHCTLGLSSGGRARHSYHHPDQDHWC
Sequence (P54289 25-1103 partner): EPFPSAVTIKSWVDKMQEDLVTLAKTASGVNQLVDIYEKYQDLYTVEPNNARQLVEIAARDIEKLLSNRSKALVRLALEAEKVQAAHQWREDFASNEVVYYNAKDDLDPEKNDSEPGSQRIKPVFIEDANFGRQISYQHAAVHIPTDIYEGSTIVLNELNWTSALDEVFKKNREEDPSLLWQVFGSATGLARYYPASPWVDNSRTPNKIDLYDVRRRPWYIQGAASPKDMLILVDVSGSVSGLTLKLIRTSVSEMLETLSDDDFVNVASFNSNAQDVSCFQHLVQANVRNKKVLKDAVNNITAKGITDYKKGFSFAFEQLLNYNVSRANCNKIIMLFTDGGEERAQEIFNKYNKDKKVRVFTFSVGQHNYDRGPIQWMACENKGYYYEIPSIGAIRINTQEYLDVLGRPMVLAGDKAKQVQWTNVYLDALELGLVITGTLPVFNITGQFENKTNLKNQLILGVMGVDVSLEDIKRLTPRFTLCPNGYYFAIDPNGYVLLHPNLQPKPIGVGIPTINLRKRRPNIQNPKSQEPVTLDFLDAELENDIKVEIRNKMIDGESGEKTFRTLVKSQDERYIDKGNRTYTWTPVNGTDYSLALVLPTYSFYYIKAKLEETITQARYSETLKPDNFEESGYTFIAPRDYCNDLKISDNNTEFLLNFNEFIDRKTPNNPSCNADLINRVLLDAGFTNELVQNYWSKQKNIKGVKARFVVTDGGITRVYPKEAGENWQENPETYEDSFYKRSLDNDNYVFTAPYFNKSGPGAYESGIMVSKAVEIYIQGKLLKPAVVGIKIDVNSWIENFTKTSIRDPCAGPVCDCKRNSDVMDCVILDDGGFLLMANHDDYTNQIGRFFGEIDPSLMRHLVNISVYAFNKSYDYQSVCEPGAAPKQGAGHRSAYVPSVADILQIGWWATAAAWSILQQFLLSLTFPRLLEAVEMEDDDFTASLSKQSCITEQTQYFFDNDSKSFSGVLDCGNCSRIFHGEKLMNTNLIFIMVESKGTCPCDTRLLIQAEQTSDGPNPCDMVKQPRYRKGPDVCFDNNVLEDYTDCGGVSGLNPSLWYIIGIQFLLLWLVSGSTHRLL
Sequence (P54284 whole entry partner): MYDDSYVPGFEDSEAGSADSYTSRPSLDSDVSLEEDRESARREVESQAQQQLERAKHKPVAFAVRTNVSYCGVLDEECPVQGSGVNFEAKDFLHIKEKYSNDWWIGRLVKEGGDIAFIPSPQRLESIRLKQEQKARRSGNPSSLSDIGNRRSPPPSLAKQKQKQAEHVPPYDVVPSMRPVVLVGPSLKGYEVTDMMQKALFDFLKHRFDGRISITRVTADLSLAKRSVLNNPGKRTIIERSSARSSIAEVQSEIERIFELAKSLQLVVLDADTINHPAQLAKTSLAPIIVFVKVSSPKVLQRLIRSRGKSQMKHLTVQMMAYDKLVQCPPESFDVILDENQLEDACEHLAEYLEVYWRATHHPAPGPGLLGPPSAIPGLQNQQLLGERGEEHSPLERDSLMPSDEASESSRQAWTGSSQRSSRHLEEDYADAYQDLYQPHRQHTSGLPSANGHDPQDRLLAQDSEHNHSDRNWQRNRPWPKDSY
MEASUREMENT_KIND: IC50 (nM)

Recorded IC50, per entry:
MOLECULE	IC50 (nM)
CC(C)([C@H]1C[C@@H](NS(=O)(=O)c2ccc(C(F)(F)F)cc2Cl)C1)S(=O)(=O)c1cc(F)cc(C(F)(F)F)c1	680
CC(C)(C[C@H]1C[C@H](NC(=O)c2cnc(C(F)(F)F)nc2)C1)S(=O)(=O)c1cccc(C(F)(F)F)c1	510
CC(C)([C@H]1C[C@@H](NS(=O)(=O)c2ccc(OC(F)(F)F)cc2)C1)S(=O)(=O)c1cc(F)cc(C(F)(F)F)c1	610
CC(C)(C1CC(CNC(=O)c2ccc(Cl)c(F)c2)C1)S(=O)(=O)c1cccc(C(F)(F)F)c1 (stereo not shown)	150
CC(C)S(=O)(=O)c1cc(C(F)(F)F)cnc1C(=O)NCC1CC(C(C)(C)S(=O)(=O)c2cccc(C(F)(F)F)c2)C1 (stereo not shown)	350

[A] CC(C)([C@H]1C[C@@H](NS(=O)(=O)c2ccc(OC(F)(F)F)cc2)C1)S(=O)(=O)c1cccc(C(F)(F)F)c1
[B] CC(C)([C@H]1C[C@@H](NC(=O)c2ccc(Cl)c(F)c2)C1)S(=O)(=O)c1cccc(OC(F)(F)F)c1
[C] CC(C)([C@H]1C[C@H](NC(=O)c2ccc(Cl)c(F)c2)C1)S(=O)(=O)c1cccc(OC(F)(F)F)c1
[D] CC(C)([C@H]1C[C@@H](NC(=O)c2ncc(C(F)(F)F)cn2)C1)S(=O)(=O)c1cccc(C(F)(F)F)c1
Data request: # ascending order, key=IC50 A ranking is expressed here by listing the labels in the requested order.
Data returned: C, B, A, D

* * *

target: Human Cav 2.2 channels (Homo sapiens); experiment: Fluorescent assay for CaV2.2 channels using potassium depolarization (VIPR/FLIPR); format: cell-based; conditions: FLIPR data; closed state; read-out: CAv2.2 IC50 Closed
MEASUREMENT_KIND: IC50 (µM)

Recorded IC50, per entry:
COMPOUND	UNITS	IC50
CC(C)([C@H]1C[C@@H](NC(=O)c2cc(C(F)(F)F)n[nH]2)C1)S(=O)(=O)c1cccc(OC(F)(F)F)c1 [Compound 639]	µM	6.16
CC(C)(C1CC(CNC(=O)c2ccnc(C(F)(F)F)n2)C1)S(=O)(=O)c1cccc(C(F)(F)F)c1 (stereo not shown) [Compound 615]	µM	1.37

[P] CC(C)([C@H]1C[C@H](C(=O)NCc2ccc(C(F)(F)F)nc2)C1)S(=O)(=O)c1cccc(C(F)(F)F)c1 [Compound 767]
[Q] O=C(NC[C@H]1C[C@H](S(=O)(=O)c2cc(F)cc(C(F)(F)F)c2)C1)c1ccc(C(F)(F)F)nc1 [Compound 704]
Data request: For the pair P and Q , which member has the lower IC50 number? The response must carry the label of the picked entry.
Data returned: P
(P: 5.37 µM, Q: 10 µM)
